Test system: T-47D breast
assay_notes: NCI-60 one-dose screen, 48 h
condition_parameters: 10 µM unless noted
About 83,000 compounds went through this panel and 20% of them were active in at least one assay; those are over-represented in the sample as a whole. Active and inactive are the calls of the source. The calls were made as follows: active = growth percent below 10; inactive = the rest.
Outcome codes: TRUE (active), FALSE (inactive)

line_notation	tested_target	answer_label
COc1ccc(CNCCCN2C(=O)c3ccc4c5c(ccc(c35)C2=O)C(=O)N(CCCNCc2ccc(OC)c(OC)c2OC)C4=O)c(OC)c1OC	T-47D breast	TRUE
O=C(Oc1ccccc1)c1ccccc1Cl	T-47D breast	FALSE
CCCCCCCCCCCCCCCCCC1=NCCN1CS(=O)(=O)O	T-47D breast	FALSE
CCCNC(=O)Oc1ccc(/C(=C(/CC)Cc2ccccc2)c2ccc(OCCN(CC)CC)cc2)cc1	T-47D breast	FALSE
COc1ccc(CN2C(=O)/C(=C\C(=O)c3ccc(OCCN4CCCCC4)cc3)c3ccccc32)cc1	T-47D breast	FALSE
COc1ccc2cn3c4ccc(O)cc4[nH]c(=O)c3c2c1	T-47D breast	FALSE
COC(=O)c1cc(O)c2cc3c(cc2c1-c1cc(OC)c(OC)c(OC)c1)OCO3	T-47D breast	FALSE
CCCCN(CCCC)CCCNc1c2c(nc3ccc(Cl)cc13)CCCC2	T-47D breast	FALSE
CC(=O)Nc1nc(C)c(C(=O)N/N=C/N2CCCCC2)s1	T-47D breast	FALSE
CCC(C)(C)c1ccc(OCCCCCCN2CCNCC2)cc1	T-47D breast	FALSE

====

System: 786-0 renal
assay_notes: NCI-60 one-dose screen, 48 h (100 = growth as untreated, 0 = no growth, -100 = all killed)
condition_parameters: 10 µM unless noted
The panel holds about 83,000 compounds, 20% with a hit somewhere; the sample as a whole holds those more often. The source made the active and inactive calls. Rule for the calls: active = growth percent below 10; inactive = the rest.

compound	tested_target	growth
COC(=O)c1cc(Nc2ccc(O)c3c2C(=O)c2c([N+](=O)[O-])ccc(O)c2C3=O)cc(C(=O)OC)c1	786-0 renal	88.7% (inactive)
Oc1ccc(CN(Cc2ccc(C(F)(F)F)cc2)Cc2ccc(O)c3ncccc23)c2cccnc12	786-0 renal	11.4% (inactive)
CCCC(C)c1cc(Cc2cc(Cl)cc(Cl)c2O)c(O)c(Cc2cc(Cl)cc(Cl)c2O)c1 (stereo not given)	786-0 renal	6.89% (active)
O=C(Nc1ccc(-n2cc(-c3ccncc3)c(-c3ccc(Cl)c(O)c3)n2)cc1)c1ccc(Cl)c(C(F)(F)F)c1	786-0 renal	-94.1% (active)
CCCCCCCCCCCCCCCCNC(=S)N/N=C/c1ccc(OC)cc1	786-0 renal	95.3% (inactive)
COc1cc(-c2c3c(cn2CCN2CCCCC2)-c2oncc2CC3)cc(OC)c1OC	786-0 renal	105% (inactive)
COc1cc(CCNc2cnc3cc(N)cc(N)c3n2)cc(OC)c1	786-0 renal	101% (inactive)
COc1cc(-c2cc3cnccc3c3nc(N)c4ccncc4c23)cc(OC)c1OC	786-0 renal	24.8% (inactive)
CCOC(=O)C1=C(C(F)(F)F)NC(=S)NC1CN1C(=O)c2ccccc2C1=O (stereo not given)	786-0 renal	99.7% (inactive)
COc1ccc2sc(-n3nc4nc5n(c(=O)c4c3N)-c3ccccc3Sc3ccccc3-5)nc2c1	786-0 renal	91.2% (inactive)
CCCCCCCCCCCCCCCC[n+]1cccc(C#N)c1	786-0 renal	70.3% (inactive)
CCCCCCCCC/C(=N\NC(=O)c1ccncc1)c1ccc(O)c(O)c1O	786-0 renal	11.1% (inactive)
COc1ccccc1CNCCCN1C(=O)c2ccc3c4c(ccc(c24)C1=O)C(=O)N(CCCNCc1ccccc1OC)C3=O	786-0 renal	-50% (active)
NC(CSC(c1ccccc1)(c1ccccc1)c1ccccc1)C(=O)NCC(=O)O (stereo not given)	786-0 renal	71.3% (inactive)
CCCCCCCCCCCCOC(=O)/C=C\C(=O)NC(N)=O	786-0 renal	89.9% (inactive)
COc1ccc(-c2cc(C#N)c(NNC(C)=O)[nH]2)cc1	786-0 renal	95.3% (inactive)
CC1(C)NCCC[C@]2(C)[C@H]3CC=C4[C@@H]5C[C@](C)(COC(=O)c6ccccc6C(=O)O)CC[C@]5(C)CC[C@@]4(C)[C@]3(C)CC[C@@H]12	786-0 renal	65.2% (inactive)
COc1ccc2oc(=O)cc(CN3C(=O)S/C(=C\c4ccc(Cl)cc4)C3=O)c2c1	786-0 renal	93.1% (inactive)
O=C(/C=C\c1ccccc1Cl)c1ccccc1	786-0 renal	93.9% (inactive)
CC(C)(CNC1CCCCC1)OC(=O)c1ccccc1	786-0 renal	100% (inactive)
COc1ccc(CN2C(=O)/C(=C\C(=O)c3ccc(OCCN4CCCCC4)cc3)c3ccccc32)cc1	786-0 renal	37.4% (inactive)
C[C@]12C=CC(=O)C=C1[C@@H](F)C[C@@H]1[C@@H]2[C@@H](O)C[C@@]2(C)[C@H]1CC[C@]2(O)C(=O)CO	786-0 renal	108% (inactive)
CNc1ccc(Nc2ccc(S(=O)(=O)O)cc2)c2c1C(=O)c1ccccc1C2=O	786-0 renal	103% (inactive)
C[C@@H](c1ccc2c(c1)[nH]c1ccc(Cl)cc12)c1nc2ccc(Cl)cc2[nH]1	786-0 renal	75.9% (inactive)
COc1cc2cn3c4ccc(O)cc4[nH]c(=O)c3c2cc1OC	786-0 renal	1.09% (active)
CCCCCCCCCCCCCCCCNC(=O)Nc1ccc(C)c(NC(=O)NCCCCCCCCCCCCCCCC)c1	786-0 renal	118% (inactive)
Cc1c(Cc2ccccc2)c(=O)oc2c(C)c(OCc3n[nH]c(=S)o3)ccc12	786-0 renal	68.9% (inactive)
O=C(NCCCl)Nc1nccnc1OCc1ccc(F)cc1	786-0 renal	89% (inactive)
O=C(CN1CCN(c2cccc(Cl)c2)CC1)N1CCN(c2nnc(-c3ccc(Cl)cc3)c(-c3ccc(Cl)cc3)n2)CC1	786-0 renal	91.2% (inactive)
COC1(OC)N=C(N)C2(C#N)C3(C(=O)Nc4ccccc43)C12C#N (stereo not given)	786-0 renal	94.3% (inactive)
Cc1c(C(N)=O)sc2c1c(=O)n(Cc1ccccc1)c1nnc(S(C)(=O)=O)n21	786-0 renal	108% (inactive)
O=C(Nc1ccc(Cl)c(Cl)c1)O/N=C\c1c(Cl)ccc([N+](=O)[O-])c1Cl	786-0 renal	5.13% (active)
COc1cc2ncnc(-n3ncc4cc(NC(=O)Nc5ccccc5)ccc43)c2cc1OC	786-0 renal	28% (inactive)
COc1cc(-c2nn(-c3ccc(NC(=O)Nc4ccc(Cl)c(C(F)(F)F)c4)cc3)cc2-c2ccncc2)ccc1Cl	786-0 renal	-52.3% (active)
O=C1c2ccccc2CCc2ccccc21	786-0 renal	109% (inactive)
O=C(Nc1ccc(-n2cc(-c3ccncc3)c(-c3ccc(Cl)c(O)c3)n2)cc1)c1cc(Cl)cc(Cl)c1	786-0 renal	-39% (active)
COc1nc(OC)nc(-c2cc(-c3cc(OC)c(OC)c(OC)c3)no2)n1	786-0 renal	93.9% (inactive)
Cn1c2ccccc2c2ccccc21	786-0 renal	105% (inactive)
COC(=O)c1cc(O)c2cc3c(cc2c1-c1cc(OC)c(OC)c(OC)c1)OCO3	786-0 renal	29.6% (inactive)
C=C(NC(=O)[C@H](C(C)C)N(C)c1cccc2[nH]ccc12)C(=O)OC	786-0 renal	95.9% (inactive)

====

System: MDA-MB-231 breast
assay_notes: NCI-60 one-dose screen, 48 h (100 = growth as untreated, 0 = no growth, -100 = all killed)
condition_parameters: 10 µM unless noted
This is part of a sample that, as a whole, favours compounds with a hit. Of some 83,000 tested, about 20% had one in any assay.
Label condition met when growth is at or above 50%; otherwise label condition not met.

molecule	answer_label
CC(O)c1cc[cH-]c1.[Fe+2].c1cc[cH-]c1 (stereo unspecified)	condition met
COc1ccc(-c2nc(Nc3nc4ccccc4[nH]3)nc(N)c2C#N)cc1	condition met
CNCCCNCCCCNCCCN1C(=O)c2ccc3c4c(ccc(c24)C1=O)C(=O)N(CCCNCc1ccccc1OC)C3=O	condition not met
Clc1ccc(N/N=C(/c2ccccc2)c2ccccn2)nc1	condition not met
COc1ccc(CN2C(=O)/C(=C\C(=O)c3ccc(OCCN4CCCC4)cc3)c3ccccc32)cc1	condition met
O=c1[nH]c2cc(O)ccc2n2cc3c(F)cccc3c12	condition met
Cn1cnc2nc[nH]c2c1=S	condition met
COc1ccc(C(=O)c2no[n+]([O-])c2C(=O)c2ccc(OC)cc2)cc1	condition met
NNC(=S)N1N=C(c2cc3ccccc3o2)CC1c1c[nH]c2ccccc12 (stereo unspecified)	condition not met
O=CN/N=C/c1ccc(Cl)c([N+](=O)[O-])c1	condition not met
O=C(O)CS(=O)c1ccc(Cl)cc1 (stereo unspecified)	condition met
